Please go through the items and note down their Diameter of zone of inhibition.
- System: S. aureus 38418
- assay_name: agar diffusion test (Test System II, multi-resistant germs)
- Format: cell-based, Staphylococcus aureus
- condition_info: Quantity n [mol] 0.19
Answers are plain numbers, in mm.

Worked set:
- compound: "CCOC(=O)C1=C(NC(C(=O)NC2C(=O)N3C(C(=O)O)=C(Cl)CSC23)c2ccccc2)C(=O)C=CC1=O (centres unmarked)"
  units_label: "mm"
  Diameter of zone of inhibition: 30
- compound: "N[C@@H](C(=O)N[C@@H]1C(=O)N2C(C(=O)O)=C(Cl)CS[C@H]12)c1ccccc1 [2c, Cefaclor, reference compound]"
  units_label: "mm"
  Diameter of zone of inhibition: 38

Below are 2 compounds. Give each one its Diameter of zone of inhibition.
1. CC1=C(C(=O)O)N2C(=O)[C@@H](NC(=O)[C@H](N)c3ccc(O)cc3)[C@H]2SC1 [2a, Cefadroxil, reference compound]
2. COC(=O)C1=C(NC(C(=O)NC2C(=O)N3C(C(=O)O)=C(C)CSC23)c2ccc(O)cc2)C(=O)C=CC1=O (centres unmarked)

RESULT:
1: 38; 2: 28

---

- Tested on: Staphylococcus aureus ATCC 6538
- assay_name: mouse infected with Staphylococcus aureus infection model (survival)
- Type: in vivo, BALB/c mice
- condition_info: 2 × 0.5 mg (25 mg/kg) i.p.
parameter: Survival/tested mice n/n

Would you please look over these solved cases?
- compound: "CC1=C(C(=O)O)N2C(=O)C(NC(=O)C(NC3=C(C(N)=O)C(=O)C=CC3=O)c3ccccc3)C2SC1 (centres unmarked)"
  target_or_test_system: "Staphylococcus aureus ATCC 6538"
  Survival/tested mice n/n: "3/3"
- compound: "O=C(O)C1=C(Cl)CSC2C(NC(=O)C(NC3=C(C(=O)NCCO)C(=O)C=CC3=O)c3ccccc3)C(=O)N12 (centres unmarked)"
  target_or_test_system: "Staphylococcus aureus ATCC 6538"
  Survival/tested mice n/n: "12/12"
- compound: "NC(=O)C1=C(NC(C(=O)NC2C(=O)N3C(C(=O)O)=C(Cl)CSC23)c2ccccc2)C(=O)C=CC1=O (centres unmarked)"
  target_or_test_system: "Staphylococcus aureus ATCC 6538"
  Survival/tested mice n/n: "3/3"

Required: Survival/tested mice n/n, one value per compound below.
1. O=C(O)C1=C(Cl)CC2C(=O)C(NC(=O)C(NC3=C(C(=O)NCCO)C(=O)C=CC3=O)c3ccccc3)C2N1 (centres unmarked)
2. CC1=CC(NC(C(=O)NC2C(=O)N3C(C(=O)O)=C(C)CSC23)c2ccc(O)cc2)=CC(=O)C1=O (centres unmarked)

RESULT:
1. 9/9
2. 3/6

---

- Tested on: S. aureus 36881
- assay_name: agar diffusion test (Test System II, multi-resistant germs)
- Type: cell-based, Staphylococcus aureus
- condition_info: Quantity n 0.19
parameter: Diameter of zone of inhibition (mm)
Numbers only, in mm.

Below are worked cases with known answers.
- molecule: "N[C@@H](C(=O)N[C@@H]1C(=O)N2C(C(=O)O)=C(Cl)CS[C@H]12)c1ccccc1 [2c, Cefaclor, reference compound]"
  Diameter of zone of inhibition [mm]: 18
- molecule: "CCOC(=O)C1=C(NC(C(=O)NC2C(=O)C3CC(Cl)=C(C(=O)O)NC32)c2ccccc2)C(=O)C=CC1=O (centres unmarked)"
  Diameter of zone of inhibition [mm]: 20
- molecule: "COC(=O)C1=C(NC(C(=O)NC2C(=O)N3C(C(=O)O)=C(C)CSC23)c2ccc(O)cc2)C(=O)C=CC1=O (centres unmarked)"
  Diameter of zone of inhibition [mm]: 14
- molecule: "CCOC(=O)C1=C(NC(C(=O)NC2C(=O)N3C(C(=O)O)=C(Cl)CSC23)c2ccccc2)C(=O)C=CC1=O (centres unmarked)"
  Diameter of zone of inhibition [mm]: 18

Now for another entry.
The reported Diameter of zone of inhibition of the molecule CC1=C(C(=O)O)N2C(=O)[C@@H](NC(=O)[C@H](N)c3ccc(O)cc3)[C@H]2SC1 [2a, Cefadroxil, reference compound] was 18

Origin of values: patent US20110040086A1
